experiment: Plasma pharmacokinetics after a single subcutaneous dose in healthy volunteers; assay type: in vivo, human; conditions: male, human, plasma, sc, 300 ug
*1 amine or outer side, *2 acyl side, *3 side chain or, on linkers, in order; H or OH if unused. Where a SMILES comes first, the peptide text is derived from it. Side-chain parts run from the residue outwards. [ ]: non-standard residue; d: D form. The star is where a group is joined. Ethylenediamine = C(CN[*:2])N[*:1]; Hyp = O=C(O)[C@@H]1C[C@@H](O)CN1; Phg = N[C@H](C(=O)O)c1ccccc1; CO = O=C([*:1])[*:2]; Bn = c1ccc(C*)cc1
Quantity Name: CL/F (mL/min)
Give a bare numeral; the unit mL/min is implied.

The compound identified as NCCCC[C@@H]1NC(=O)[C@@H](Cc2c[nH]c3ccccc23)NC(=O)[C@H](c2ccccc2)NC(=O)[C@@H]2C[C@@H](OC(=O)NCCN)CN2C(=O)[C@H](Cc2ccccc2)NC(=O)[C@H](Cc2ccc(OCc3ccccc3)cc2)NC1=O [Pasireotide] (cyclo([Hyp]([CO-Ethylenediamine])[Phg][dW]KY(Bn)F)) registered its CL/F at 198

* * *

test: Plasma pharmacokinetics after a single subcutaneous dose in healthy volunteers; type: in vivo, human; conditions: male, human, plasma, sc, 30 ug
*1 amine or outer side, *2 acyl side, *3 side chain or, on linkers, in order; H or OH if unused. Where a SMILES comes first, the peptide text is derived from it. Side-chain parts run from the residue outwards. [ ]: non-standard residue; d: D form. The star is where a group is joined. Ethylenediamine = C(CN[*:2])N[*:1]; Hyp = O=C(O)[C@@H]1C[C@@H](O)CN1; Phg = N[C@H](C(=O)O)c1ccccc1; CO = O=C([*:1])[*:2]; Bn = c1ccc(C*)cc1
Quantity Name: Cmax (ng/mL)
Give a bare numeral; the unit ng/mL is implied.

The molecule identified as NCCCC[C@@H]1NC(=O)[C@@H](Cc2c[nH]c3ccccc23)NC(=O)[C@H](c2ccccc2)NC(=O)[C@@H]2C[C@@H](OC(=O)NCCN)CN2C(=O)[C@H](Cc2ccccc2)NC(=O)[C@H](Cc2ccc(OCc3ccccc3)cc2)NC1=O [Pasireotide] (cyclo([Hyp]([CO-Ethylenediamine])[Phg][dW]KY(Bn)F)) registered its Cmax at 0.72

* * *

assay: Plasma pharmacokinetics after a single subcutaneous dose in healthy volunteers; format: in vivo, human; conditions: male, human, plasma, sc, 10 ug
*1 amine or outer side, *2 acyl side, *3 side chain or, on linkers, in order; H or OH if unused. Where a SMILES comes first, the peptide text is derived from it. Side-chain parts run from the residue outwards. [ ]: non-standard residue; d: D form. The star is where a group is joined. Ethylenediamine = C(CN[*:2])N[*:1]; Hyp = O=C(O)[C@@H]1C[C@@H](O)CN1; Phg = N[C@H](C(=O)O)c1ccccc1; CO = O=C([*:1])[*:2]; Bn = c1ccc(C*)cc1
Quantity Name: Tmax (min)
Give a bare numeral; the unit min is implied.

The molecule identified as NCCCC[C@@H]1NC(=O)[C@@H](Cc2c[nH]c3ccccc23)NC(=O)[C@H](c2ccccc2)NC(=O)[C@@H]2C[C@@H](OC(=O)NCCN)CN2C(=O)[C@H](Cc2ccccc2)NC(=O)[C@H](Cc2ccc(OCc3ccccc3)cc2)NC1=O [Pasireotide] (cyclo([Hyp]([CO-Ethylenediamine])[Phg][dW]KY(Bn)F)) registered its Tmax at 15
